# Test system: RAW264.7
# assay comment: Cytotoxicity against mouse RAW264.7 cells assessed as decrease in cell viability after 24 hrs by MTT assay
# Type: cell-based
# condition parameters: RAW264.7, 24 h
reported endpoint: IC50

{"columns": ["molecule", "reported result"],
 "data": [
  ["O=C1NC(=O)C2=C1CCC2SC(=O)c1cccs1 (centres undefined)", "26.7 µM"],
  ["O=C1NC(=O)C2=C1CC[C@H]2O", "319 µM"],
  ["O=C1NC(=O)C2=C1CC[C@@H]2O", "217 µM"],
  ["CC(=O)OC1CC[C@]2(SC(=O)c3ccccc3Cl)C(=O)NC(=O)[C@H]12 (some centres undefined)", "9080 µM"]
]}

###

# System: RAW264.7
# assay comment: Cytotoxicity against mouse RAW264.7 cells assessed as decrease in cell viability after 24 hrs by MTT assay
# Assay type: cell-based
# condition parameters: RAW264.7, 24 h
pIC50: −log10 of the molar value.
reported endpoint: pIC50

{"columns": ["compound", "reported endpoint", "reported result"],
 "data": [
  ["O=C(S[C@]12CCC[C@H]1C(=O)NC2=O)c1ccccc1Cl (relative stereo)", "pIC50", 3.08],
  ["O=C(S[C@]12CC[C@H](O)[C@H]1C(=O)NC2=O)c1ccccc1Cl (relative stereo)", "pIC50", 3.14],
  ["CC(=O)SC12CCC=C1C(=O)NC2=O (centres undefined)", "pIC50", 3.73],
  ["O=C(Cc1ccccc1)SC1CC[C@]2(SC(=O)Cc3ccccc3)C(=O)NC(=O)[C@H]12 (some centres undefined)", "pIC50", 3.15],
  ["O=C(S[C@]12CC[C@H](O)[C@H]1C(=O)NC2=O)c1ccccc1 (relative stereo)", "pIC50", 1.77],
  ["O=C(S[C@]12CC[C@@H](O)[C@H]1C(=O)NC2=O)c1ccc(O)cc1", "pIC50", 3.21],
  ["CC(=O)S[C@]12CC[C@H](O)[C@H]1C(=O)NC2=O (relative stereo)", "pIC50", 3.07],
  ["CC(=O)O[C@H]1CCC2=C1C(=O)NC2=O", "pIC50", 3.89],
  ["CC(=O)OC1CC[C@]2(SC(=O)c3ccc(F)cc3)C(=O)NC(=O)[C@H]12 (some centres undefined)", "pIC50", 1.92],
  ["O=C(SC12CCC(O)C1C(=O)NC2=O)c1ccc(O)cc1 (racemic)", "pIC50", 3.36],
  ["CC(=O)OC1CC[C@]2(SC(=O)Cc3ccccc3)C(=O)NC(=O)[C@H]12 (some centres undefined)", "pIC50", 2.79],
  ["O=C(S[C@]12CC[C@H](O)[C@H]1C(=O)NC2=O)c1cccs1 (relative stereo)", "pIC50", 1.96],
  ["O=C(Cc1ccccc1)SC12CCC=C1C(=O)NC2=O (centres undefined)", "pIC50", 4.03],
  ["CC(=O)SC1CC[C@]2(SC(C)=O)C(=O)NC(=O)[C@H]12 (some centres undefined)", "pIC50", 2.00]
]}
